Tested on: Streptococcus sp.
Assay explanation: in vitro antibacterial evaluation, MIC by broth dilution
Format: cell-based
Condition notes: strain GC 4564; broth dilution, 18 hours at 35° C.
Property label: MIC Streptococcus agalactiae (GC 4564)

[
  {
    "Compound": "CC(c1ccccc1)C1NC(=O)CNC(=O)C(CO)NC(=O)C(C(O)C2CNC(=N)N2C2OC(CO)C(O)C(O)C2O)NC(=O)C(C(O)C2CNC(=N)N2)NC(=O)C(Cc2ccc(OC3OC(CO)C(OC4OC5COC(c6ccc(Oc7ccc(C(C)(C)C)cc7)cc6)OC5C(O)C4O)C(O)C3O)cc2)NC1=O (centres unmarked)",
    "MIC Streptococcus agalactiae (GC 4564)": "<0.06 µg/mL"
  }
]

With those in mind, consider the next compound.
Value of MIC Streptococcus agalactiae (GC 4564) reported for the compound CC(c1ccccc1)C1NC(=O)CNC(=O)C(CO)NC(=O)C(C(O)C2CNC(=N)N2C2OC(CO)C(O)C(O)C2O)NC(=O)C(C(O)C2CNC(=N)N2)NC(=O)C(Cc2ccc(OC3OC(CO)C(OC4OC5COC(c6ccc7c(c6)OCO7)OC5C(O)C4O)C(O)C3O)cc2)NC1=O (centres unmarked) is 0.5 to 1 µg/mL

----------
System: Escherichia coli
Assay explanation: in vitro antibacterial evaluation, MIC by broth dilution
Format: cell-based
Condition notes: strain ATCC 25922; broth dilution, 18 hours at 35° C.
Property label: MIC Escherichia coli (ATCC 25922) (µg/mL)
Numbers only, in µg/mL.

Hey, Escherichia coli data for CC(c1ccccc1)C1NC(=O)CNC(=O)C(CO)NC(=O)C(CC2CNC(=N)N2C2OC(CO)C(O)C(O)C2O)NC(=O)C(CC2CNC(=N)N2)NC(=O)C(Cc2ccc3oc(-c4ccc5c(c4)Cc4ccccc4-5)nc3c2)NC1=O (centres unmarked) : MIC Escherichia coli (ATCC 25922) came out at 32

----------
So I've got a bunch of compounds here, and I need their MIC Streptococcus agalactiae (GC 4564) values.
System: Streptococcus sp.
Assay explanation: in vitro antibacterial evaluation, MIC by broth dilution
Format: cell-based
Condition notes: broth dilution, 18 hours at 35° C.
Answers are plain numbers, in µg/mL.

# return MIC Streptococcus agalactiae (GC 4564) for each item in the list
1. CC(c1ccccc1)C1NC(=O)CNC(=O)C(CO)NC(=O)C(C(O)C2CN(Cc3ccc(C(F)(F)F)cc3)C(=N)N2C2OC(CO)C(O)C(O)C2O)NC(=O)C(C(O)C2CNC(=N)N2)NC(=O)C(Cc2ccc(OC3OC(CO)C(OC4OC5COC6(OC5C(O)C4O)C4CC5CC(C4)CC6C5)C(O)C3O)cc2)NC1=O (centres unmarked)
2. Cc1ccc(Oc2cccc(C3OCC4OC(OC5C(CO)OC(Oc6ccc(CC7NC(=O)C(C(C)c8ccccc8)NC(=O)CNC(=O)C(CO)NC(=O)C(C(O)C8CNC(=N)N8C8OC(CO)C(O)C(O)C8O)NC(=O)C(C(O)C8CNC(=N)N8)NC7=O)cc6I)C(O)C5O)C(O)C(O)C4O3)c2)cc1 (centres unmarked)
3. CC(c1ccccc1)C1NC(=O)CNC(=O)C(CO[Si](C)(C)C(C)(C)C)NC(=O)C(C(O)C2CNC(=N)N2C2OC3COC(C)(C)OC3C3OC(C)(C)OC32)NC(=O)C(C(O)C2CNC(=N)N2)NC(=O)C(Cc2ccc(O)cc2)NC1=O (centres unmarked)

Result:
1. 4
2. 16
3. 64

Report MIC Streptococcus agalactiae (GC 4564) for every entry below.
1. CC(c1ccccc1)C1NC(=O)CNC(=O)C(CO)NC(=O)C(C(O)C2CNC(=N)N2C2OC(CO)C(O)C(O)C2O)NC(=O)C(C(O)C2CNC(=N)N2)NC(=O)C(Cc2ccc(OC3OC(CO)C(OC4OC5COC6(CCCCC6)OC5C(O)C4O)C(O)C3O)cc2)NC1=O (centres unmarked)
2. COc1ccc2cc(C3OCC4OC(OC5C(CO)OC(Oc6ccc(CC7NC(=O)C(C(C)c8ccccc8)NC(=O)CNC(=O)C(CO)NC(=O)C(CC8CNC(=N)N8C8OC(CO)C(O)C(O)C8O)NC(=O)C(CC8CNC(=N)N8)NC7=O)cc6)C(O)C5O)C(O)C(O)C4O3)ccc2c1 (centres unmarked)
3. Cc1ccc(COCC2OC(OC3C(CO)OC(Oc4ccc(CC5NC(=O)C(C(C)c6ccccc6)NC(=O)CNC(=O)C(CO)NC(=O)C(C(O)C6CNC(=N)N6C6OC(CO)C(O)C(O)C6O)NC(=O)C(C(O)C6CNC(=N)N6)NC5=O)cc4)C(O)C3O)C(O)C(O)C2O)cc1 (centres unmarked)
4. CC(c1ccccc1)C1NC(=O)CNC(=O)C(CO)NC(=O)C(C(O)C2CN(CCCCCCCCCCC(=O)O)C(=N)N2C2OC(CO)C(O)C(O)C2O)NC(=O)C(C(O)C2CNC(=N)N2)NC(=O)C(Cc2ccc(OC3OC(CO)C(OC4OC(CO)C(O)C(O)C4O)C(O)C3O)cc2)NC1=O (centres unmarked)

Result:
1. 1
2. 16
3. 0.5
4. 128

----------
Provide the recorded MIC Staphylococcus aureus (GC 4541) for the entries that follow.
Tested on: Staphylococcus sp.
Assay explanation: in vitro antibacterial evaluation, MIC by broth dilution
Assay type: cell-based
Condition notes: broth dilution, 18 hours at 35° C.; strain GC 4541
Numbered stars: 1 amine (or outer) side, 2 acyl side, 3 side chain; on linkers, the order of the positions; unused ones are H or OH. Square brackets hold non-standard residues; d marks the D form. Peptide text beside a SMILES is read from it. * marks the point of attachment. ξ: configuration not given here. X1 = N=C1NCC(C(O)C(N[*:1])C(=O)[*:2])N1C1OC(CO)C(O)C(O)C1O; ξEnduracididine(βξ-OH,4'ξ) = N=C1NCC(C(O)C(N)C(=O)O)N1; X2 = OCC1OC(OC2C(CO)OC(*)C(O)C2O)C(O)C(O)C1O

[
  {
    "Compound": "N=C1NCC(C(O)C2NC(=O)C(Cc3ccc(OC4OC(CO)C(OC5OC(CO)C(O)C(O)C5O)C(O)C4O)cc3)NC(=O)C(Cc3ccccc3)NC(=O)CNC(=O)C(CO)NC(=O)C(C(O)C3CNC(=N)N3C3OC(CO)C(O)C(O)C3O)NC2=O)N1 (stereo not drawn) [Example 282] (cyclo(GFY(X2)[ξEnduracididine(βξ-OH,4'ξ)][X1]S); configuration not given here)",
    "Test value": ">128 µg/mL"
  }
]

// next item, MIC Staphylococcus aureus (GC 4541) requested
Lookup result for CC(c1ccccc1)C1NC(=O)CNC(=O)C(CO)NC(=O)C(C(O)C2CNC(=N)N2C2OC(CO)C(O)C(O)C2O)NC(=O)C(C(O)C2CNC(=N)N2)NC(=O)C(Cc2ccc(OC3OC(CO)C(OC4OC(COCC=Cc5ccc(N(C)C)cc5)C(O)C(O)C4O)C(O)C3O)cc2)NC1=O (centres unmarked) ; measured MIC Staphylococcus aureus (GC 4541): 64 µg/mL

----------
System: Enterococcus sp.
Assay explanation: in vitro antibacterial evaluation, MIC by broth dilution
Assay type: cell-based
Condition notes: broth dilution, inoculum 5×10^5 CFU/mL, 18 hours at 35° C.; strain GC 3059
From the text: Methods for in vitro Antibacterial Evaluation (Table 1) […]
Property label: MIC Enterococcus faecalis (GC 3059) (mg/L)
Give bare numbers, in mg/L.

[
  {
    "Compound": "CC(c1ccccc1)C1NC(=O)CNC(=O)C(CO)NC(=O)C(C(O)C2CNC(=N)N2C2OC(CO)C(O)C(O)C2O)NC(=O)C(C(O)C2CNC(=N)N2)NC(=O)C(Cc2ccc(OC3OC(CO)C(OC4OC5COC(c6ccc(Oc7ccc(C(C)(C)C)cc7)cc6)OC5C(O)C4O)C(O)C3O)cc2)NC1=O (stereo not shown) [Example 181]",
    "Property label": "MIC Enterococcus faecalis (GC 3059)",
    "Test value": 4
  },
  {
    "Compound": "COc1ccc2cc(COCC3OC(OC4C(CO)OC(Oc5ccc(CC6NC(=O)C(C(C)c7ccccc7)NC(=O)CNC(=O)C(CO)NC(=O)C(C(O)C7CNC(=N)N7C7OC(CO)C(O)C(O)C7O)NC(=O)C(C(O)C7CNC(=N)N7)NC6=O)cc5)C(O)C4O)C(O)C(O)C3O)ccc2c1 (stereo not shown) [Example 230]",
    "Property label": "MIC Enterococcus faecalis (GC 3059)",
    "Test value": 8
  },
  {
    "Compound": "CC(c1ccccc1)C1NC(=O)CNC(=O)C(CO)NC(=O)C(C(O)C2CNC(=N)N2C2OC(CO)C(O)C(O)C2O)NC(=O)C(C(O)C2CNC(=N)N2)NC(=O)C(Cc2ccc(OC3OC(CO)C(OC4OC5COC6(CCC(C(C)(C)C)CC6)OC5C(O)C4O)C(O)C3O)cc2)NC1=O (stereo not shown) [Example 208]",
    "Property label": "MIC Enterococcus faecalis (GC 3059)",
    "Test value": 8
  },
  {
    "Compound": "COc1ccc(COCC2OC(OC3C(CO)OC(Oc4ccc(CC5NC(=O)C(C(C)c6ccccc6)NC(=O)CNC(=O)C(CO)NC(=O)C(C(O)C6CNC(=N)N6C6OC(CO)C(O)C(O)C6O)NC(=O)C(C(O)C6CNC(=N)N6)NC5=O)cc4)C(O)C3O)C(O)C(O)C2O)cc1 (stereo not shown) [Example 232]",
    "Property label": "MIC Enterococcus faecalis (GC 3059)",
    "Test value": 32
  },
  {
    "Compound": "CC(c1ccc(Cl)cc1)C1NC(=O)CNC(=O)C(CO)NC(=O)C(C(O)C2CNC(=N)N2C2OC(CO)C(O)C(O)C2O)NC(=O)C(C(O)C2CNC(=N)N2)NC(=O)C(Cc2ccc(OC3OC(CO)C(OC4OC5COC(c6ccccc6)OC5C(O)C4O)C(O)C3O)cc2)NC1=O (stereo not shown) [Example 195]",
    "Property label": "MIC Enterococcus faecalis (GC 3059)",
    "Test value": 0.5
  }
]

Measured MIC Enterococcus faecalis (GC 3059), COc1ccc2cc(COC3C(CO)OC(OC4C(CO)OC(Oc5ccc(CC6NC(=O)C(C(C)c7ccccc7)NC(=O)CNC(=O)C(CO)NC(=O)C(CC7CNC(=N)N7C7OC(CO)C(O)C(O)C7O)NC(=O)C(CC7CNC(=N)N7)NC6=O)cc5)C(O)C4O)C(O)C3O)ccc2c1 (stereo not shown) [Example 245a] : 4

Attribution: patent US6914045B2
